# Test system: HIV1iiib in H9 cells
# ASSAY COMMENT: Antiviral activity in H9 cells (acute HIV-1 infection, reverse transcriptase assay)
# Type: cell-based
# ASSAY CONDITIONS: Human immunodeficiency virus 1, multiplicity of infection 0.01, 0.1% DMSO, read-out: Concentration for 50% Protection
pEC50: −log10 of the molar value.
READOUT: pEC50

{"COMPOUND": "O=C1OC(CCc2ccccc2)(c2ccccc2)CC(O)=C1SCc1ccc2c(c1)OCO2 (racemic)", "MEASURED ON": "HIV1iiib in H9 cells", "READOUT": "pEC50", "ENDPOINT RESULT": 5.10}
{"COMPOUND": "O=C1OC(CCc2ccccc2)(c2ccccc2)CC(O)=C1Cc1ccccc1C(F)(F)F (stereo not shown)", "MEASURED ON": "HIV1iiib in H9 cells", "READOUT": "pEC50", "ENDPOINT RESULT": 4.59}
{"COMPOUND": "CC(C)CCC1(c2ccccc2)CC(O)=C(SCc2ccccc2-c2ccccc2)C(=O)O1 (racemic)", "MEASURED ON": "HIV1iiib in H9 cells", "READOUT": "pEC50", "ENDPOINT RESULT": 4.41}
{"COMPOUND": "CC(C)CCC1(c2ccccc2)CC(O)=C(SCc2ccccc2Cl)C(=O)O1 (racemic)", "MEASURED ON": "HIV1iiib in H9 cells", "READOUT": "pEC50", "ENDPOINT RESULT": 4.54}

* * *

Recorded below: pIC50, system HIV-1 Protease (Human immunodeficiency virus type 1 group M subtype B, UniProt P04585).
pIC50: −log10 of the molar value.

{"COMPOUND": "Cc1ccc(C)c(CSC2=C(O)CC(CCc3ccccc3)(c3ccccc3)OC2=O)c1 (racemic)", "pIC50": 6.85}
{"COMPOUND": "CC(C)CCC1(c2ccccc2)CC(O)=C(SCc2ccccc2)C(=O)O1 (racemic)", "pIC50": 6.92}
{"COMPOUND": "O=C(O)CCCCC1(c2ccccc2)CC(O)=C(SCCc2ccccc2)C(=O)O1 (racemic)", "pIC50": 8.30}
{"COMPOUND": "O=C1OC(CCc2ccccc2)(c2ccccc2)CC(O)=C1SCc1ccccc1 (racemic)", "pIC50": 7.30}
{"COMPOUND": "CC(C)CCC1(c2ccccc2)CC(O)=C(SCc2ccccc2Cl)C(=O)O1 (racemic)", "pIC50": 6.66}
{"COMPOUND": "O=C1OC(CCc2ccc(Cl)c(Cl)c2)(c2ccccc2)CC(O)=C1SCc1ccccc1 (racemic)", "pIC50": 6.49}
{"COMPOUND": "O=C1OC(c2ccccc2)CC(O)=C1SCCc1ccccc1 (racemic)", "pIC50": 5.72}
{"COMPOUND": "O=C1OC(CCc2ccccc2)(c2ccccc2)CC(O)=C1Cc1ccccc1C(F)(F)F (centres unmarked)", "pIC50": 7.10}
{"COMPOUND": "O=C1OC(CCc2ccccc2)(c2ccccc2)CC(O)=C1SCCc1ccccc1 (racemic)", "pIC50": 7.22}
{"COMPOUND": "O=C1OC(c2ccccc2)(c2ccccc2)CC(O)=C1CCCc1ccccc1", "pIC50": 6.41}
{"COMPOUND": "O=C1OC(CCc2ccccc2)(c2ccccc2)CC(O)=C1SCc1ccc2c(c1)OCO2 (racemic)", "pIC50": 6.96}
{"COMPOUND": "O=C1OC(c2ccccc2)(c2ccncc2)CC(O)=C1SCCc1ccccc1 (racemic)", "pIC50": 6.19}
{"COMPOUND": "CC(C)CCC1(c2ccccc2)CC(O)=C(Sc2ccccc2C(C)C)C(=O)O1 (racemic)", "pIC50": 7.55}
{"COMPOUND": "O=C1OC(CCc2ccccc2)(c2ccccc2)CC(O)=C1Sc1ccccc1 (racemic)", "pIC50": 7.00}
{"COMPOUND": "Cc1cccc(SC2=C(O)CC(c3ccccc3)(c3ccccc3)OC2=O)c1", "pIC50": 6.96}
{"COMPOUND": "O=C1OC(c2ccccc2)(c2ccccc2)CC(O)=C1SCc1ccccc1", "pIC50": 6.59}
{"COMPOUND": "CCCCC1(c2ccccc2)CC(O)=C(SCc2ccccc2)C(=O)O1 (racemic)", "pIC50": 6.59}
